Measurement protocol: NOVARTIS: Cytotoxicity against human hepatocellular carcinoma cell line (Huh7)
Format: toxicity, cell-based, Huh-7
Setup conditions: Huh7 cells (hepatocellular carcinoma cell line)
Measured attribute: CC50

1. c1ccc2c(NCCNc3c4ccccc4nc4ccccc34)c3ccccc3nc2c1 : 11.8 µM
2. CCOC(=O)c1ccc(NC(=O)c2sc(NC(=O)c3cc(OC)c(OC)c(OC)c3)c(C(=O)OCC)c2C)cc1 : > 10 µM
3. Cc1ccn2c(NC(C)(C)CC(C)(C)C)c(-c3ccccc3OC(=O)c3ccc(Br)cc3)nc2c1 : 75 µM

Required: CC50, one value per molecule below.
1. CCN1CCN(c2cc(C)c3cc(NC(=O)/C=C/c4ccc(OC)cc4)ccc3n2)CC1
2. O=C(CSc1nccn1C1CCCC1)Nc1cc(C(F)(F)F)ccc1Cl
3. COc1cc2ncnc(NC3CCN(Cc4ccccc4)CC3)c2cc1OC

Response:
1. > 10.4 µM
2. > 100 µM
3. > 100 µM

Required: CC50, one value per molecule below.
1. O=S(=O)(/C=C/c1ccccc1)NCCCCNc1ccnc2cc(Cl)ccc12
2. C=CCn1c(SCC(=O)Nc2ccccc2C)nc2sc(C)cc2c1=O
3. N#Cc1cc2[nH]c3ccccc3c2n(-c2ccc([N+](=O)[O-])cc2)c1=N
4. O=C(NNc1c2ccccc2nc2ccccc12)Nc1ccccc1
5. Cc1ccc(S(=O)(=O)Nc2ccc(C(=O)NCCC(C)C)cc2)cc1
6. O=C(Nc1ccccc1)Nc1ccc(S(=O)(=O)Nc2ccc(Br)cc2)cc1
7. O=C1NN=C2C1=NC1(CCCCC1)Cc1ccccc12

Response:
1.48 µM
> 100 µM
> 100 µM
> 10 µM
> 10 µM
> 10 µM
3.9 µM

Required: CC50, one value per molecule below.
1. CO/C(=C\C(N)=O)C(C)C(/C=C/c1csc(-c2csc(C(C)/C=C/C=C/C(C)C)n2)n1)OC (configuration not stated)
2. Cc1ccnc(Nc2nc(-c3ccc(Cl)cc3)cs2)c1
3. CCCN1CCC(N2C[C@@H](NCc3ccc4c(c3)c3ccccc3n4CC)C[C@H]2C(=O)NCC)CC1

Response:
["> 10 µM", "> 100 µM", "> 6.38 µM"]

Required: CC50, one value per molecule below.
1. C=CCSc1nnc2c(n1)[nH]c1ccc(OCC)cc12
2. Cc1ccn2c(NC(C)(C)CC(C)(C)C)c(-c3ccccc3OC(=O)CC(C)C)nc2c1
3. CCC(C)(C#CCN1CCCC1)OC(C)=O (configuration not stated)
4. Cc1c2ccccc2c(-c2ccccc2)c2ccccc12

Response:
1: > 100 µM; 2: > 10 µM; 3: > 10 µM; 4: 6 µM

Required: CC50, one value per molecule below.
1. O=C1CN=C(c2ccccc2Cl)c2cc(Cl)ccc2N1Cc1cccc([N+](=O)[O-])c1
2. CC1N=C2c3ccccc3N=C(SCc3ccc(F)cc3)N2C1=O (configuration not stated)

Response:
> 100 µM
> 100 µM

###

System: Plasmodium falciparum
Measurement protocol: NOVARTIS: Inhibition of Plasmodium falciparum 3D7 (drug-susceptible) proliferation in erythrocyte-based infection assay
Type: functional, organism-based
Setup conditions: Plasmodium falciparum, 3D7
Measured attribute: pEC50
Answers are plain numbers, as −log10 of the molar value.

See these solved cases before continuing.
1. COc1ccc(C2CC(=O)C3=C(C2)NC(C)=C(C(=O)OC2CCCC2)C3c2ccccc2OC)cc1OC (stereo not given) : 6.67
2. CCC1CN2CCc3cc(OC)c(OC)cc3C2CC1CC1NCCc2cc(OC)c(OC)cc21 (stereo not given) : 7.45
3. Cc1cnc(CNc2cc(-c3ccccn3)nc(-c3ccccn3)n2)nc1 : 6.33

Prompt: Look up pEC50 with Plasmodium falciparum for this molecule: `CC1=C(CC(=O)c2cccs2)C(=O)c2ccccc2C1=O`
Response: 5.91
